Study target: HIV-1 pseudovirus X1193_c1 (HIV-1)
Method summary: cell-based or functional assay

{"columns": ["Binder", "Measure unit", "IC80 (neutralization in TZM.bl cells)"],
 "data": [
  ["MS-83 (antibody, V domains shown) VH: QVQLVQSGPEVRKPGTSVKVSCKAPGNTLKTYDLHWVRSVPGQGLQWMGWISHEGDKKVIVERFKAKVTIDWDRSTNTAYLQLSGLTSGDTAVYYCAKGSKHRLRDYALYDDEGALNWAVDVDYLSNLEFWGQGTAVTVSS VL: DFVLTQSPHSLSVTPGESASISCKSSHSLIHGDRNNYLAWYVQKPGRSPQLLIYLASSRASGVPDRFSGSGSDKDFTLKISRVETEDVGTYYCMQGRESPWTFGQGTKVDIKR", "µg/mL", 0.308],
  ["MS-79 (antibody, V domains shown) VH: QVQLVQSGPEVRKPGTSVKVSCKAPGNTLKTYDLHWVRSVPGQGLQWMGWISHEGDKKVIVERFKAKVTITWDRSTNTAYLQLSGLTSGDTAVYYCAKGSKHRLRDYALYDDDGALNWAVDVDYLSNLEFWGQGTAVTVSS VL: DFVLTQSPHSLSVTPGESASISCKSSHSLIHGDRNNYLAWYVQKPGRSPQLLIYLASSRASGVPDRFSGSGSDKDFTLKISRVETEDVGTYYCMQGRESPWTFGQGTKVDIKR", "µg/mL", 0.365],
  ["MS-85 (antibody, V domains shown) VH: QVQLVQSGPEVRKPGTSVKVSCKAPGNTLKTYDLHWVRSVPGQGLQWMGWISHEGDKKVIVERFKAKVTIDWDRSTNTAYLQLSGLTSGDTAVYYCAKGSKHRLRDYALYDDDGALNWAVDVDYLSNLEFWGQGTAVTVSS VL: DIVLTQSPHSLSVTPGESASISCKSSHSLIHGDRNNYLAWYVQKPGRSPQLLIYLASSRASGVPDRFSGSGSGTDFTLKISRVETEDVGTYYCMQGRESPWTFGQGTKVDIKR", "µg/mL", 0.507],
  ["MS-84 (antibody, V domains shown) VH: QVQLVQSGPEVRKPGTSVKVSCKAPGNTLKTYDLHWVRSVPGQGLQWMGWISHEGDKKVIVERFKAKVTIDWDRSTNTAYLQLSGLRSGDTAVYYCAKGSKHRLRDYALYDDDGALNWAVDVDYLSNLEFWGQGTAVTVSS VL: DFVLTQSPLSLPVTPGEPASISCKSSHSLIHGDRNNYLAWYVQKPGQSPQLLIYLASSRASGVPDRFSGSGSDKDFTLKISRVEAEDVGVYYCMQGRESPWTFGQGTKVDIKR", "µg/mL", 0.285],
  ["MS-88 (antibody, V domains shown) VH: QVQLVQSGPEVRKPGTSVKVSCKASGYTFKTYDLHWVRSVPGQGLQWMGWISHEGDKKVIVERFKAKVTITRDRSTNTAYLQLSGLTSGDTAVYYCAKGSKHRLRDYALYDDDGALNWAVDVDYLSNLEFWGQGTAVTVSS VL: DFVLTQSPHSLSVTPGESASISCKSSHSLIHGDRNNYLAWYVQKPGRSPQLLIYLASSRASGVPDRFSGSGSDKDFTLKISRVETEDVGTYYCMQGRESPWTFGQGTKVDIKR", "µg/mL", 0.775]
]}
